# assay: qHTS RealTime-Glo MT Cell Viability Assay in HEK293 cells - 40 hour (AID 1224874); also: % is scaled to controls: 0 for no effect and ±100 for the full control effect; nearly all actives have a fitted effect of over 50% in size
# experimental conditions: RealTime-Glo luminescence; stronger effect = lower value
Records with an inconclusive call do not appear. Active and inactive are the calls of the source. Calls follow the shape of the dose curve; as a rule, active = well fitted cell-killing curve with a large enough effect in the repeat runs; inconclusive = weak or mixed curves, or effect the other way; inactive = flat fitted curve, though single readings scatter.
The entries below come with measured max response values attached.
value type: max response

CCCCCc1cccc(=O)o1: -0.0336% (inactive)
Cc1ccc(C(=O)O)cc1[N+](=O)[O-]: 6.44% (inactive)
CC(C)CCOC(=O)c1ccccc1: -0.72% (inactive)
OC[C@@H](O)C(O)[C@@H](O)CO (stereo partly drawn): -0.153% (inactive)
CC(=O)OCC(=O)Nc1cc(C#N)cc(NC(=O)COC(C)=O)c1Cl: 0.686% (inactive)
C=CCCCCCCCCC(=O)OCCCC: 7.61% (inactive)
CC(C)OC(=O)OCOP(=O)(CO[C@H](C)Cn1cnc2c(N)ncnc21)OCOC(=O)OC(C)C: 2.48% (inactive)
COC(=O)CCCCC(=O)O: 8.26% (inactive)

----------
# assay: qHTS assay to identify small molecule HDAC inhibitors (AID 1259364);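 also: wild-type HCT-116 cells with endogenous class I/II HDAC activity; nearly all actives have a fitted effect of over 45% in size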
# experimental conditions: HCT-116 HDAC-Glo I/II luminescence, 2 h; series mostly up to 92.4 µM
Inconclusive results are not listed. Activity calls are given as the source filed them. The call rests on the fitted dose curve; in most records, active means well fitted inhibition curve with a large enough effect in the repeat runs; inconclusive means weak or mixed curves; inactive means flat fitted curve, though single readings scatter.
value type: outcome

CC(=O)OC1CCCCC1C(C)(C)C (configuration not stated): inactive
CCCCOCCOC(=O)COc1ccc(Cl)cc1Cl: inactive
CCC(=O)CC: inactive
CC12CCC(C1)C(C)(C)C2O (configuration not stated): inactive
CC1CCc2c(N3CCC(O)CC3)c(F)cc3c(=O)c(C(=O)O)cn1c23 (configuration not stated): inactive
Cc1ccc(N)cc1S(=O)(=O)O: inactive
Cc1ccnc(N)c1: inactive

----------
# assay: Caspase-3/7 induction in CHO-K1 cells by small molecules, qHTS cell viability counter screen (AID 1346979); also: % is scaled to controls: 0 for no effect and ±100 for the full control effect; nearly all actives have a fitted effect of over 35% in size
# experimental conditions: CellTiter-Fluor fluorescence, 17 h; series mostly up to 92.4 µM
Inconclusive results are not listed. Calls of active or inactive are those of the source. Calls follow the shape of the dose curve; as a rule, active = well fitted cell-killing curve with a large enough effect in the repeat runs; inconclusive = weak or mixed curves, or effect the other way; inactive = no such curve, though single readings can be large or run the other way.
value type: activity change, negative = cytotoxicity

C/C(CC(C)C)=N\O: inactive
CN1C[C@@H]2C[C@H]1CN2c1cc2c(cc1F)c(=O)c(C(=O)O)cn2C1CC1: -0.0368% [at 19 µM] (inactive)
COc1ccc(CCO)cc1: inactive
CCCCCCC1(C)CCC(=O)O1 (centres undefined): inactive

----------
# system: Cytochrome P450 3A4 (Homo sapiens)
# assay: Cytochrome P450 Family 3 Subfamily A Member 4 (CYP3A4) small molecule antagonists: luciferase reporter qHTS assay (AID 1671201); also: nearly all actives have a fitted effect of over 50% in size
# experimental conditions: P450-Glo CYP3A4 enzyme, luciferin luminescence, 1 h; series mostly up to 115 µM
Inconclusive results are not listed. Calls of active or inactive are those of the source. Calls come from the whole dose curve; as a rule, active = well fitted inhibition curve with a large enough effect in the repeat runs; inconclusive = weak or mixed curves; inactive = no such curve, though single readings can be large or run the other way.
Possible outcomes: TRUE for active, FALSE for inactive

COc1cc2c(cc1OC)CN(C(=O)[C@H](C)N[C@@H](CCc1ccccc1)C(=O)O)[C@H](C(=O)O)C2: FALSE
c1ccc(B(c2ccccc2)c2ccccc2)cc1: TRUE
CN(C)CCN(C)CCO: FALSE
O=Cc1cc2ccccc2o1: FALSE
CCCCCCCCCCCCCCC(=O)NC(CO)CCCCCCCCCCCCCC (centres undefined): FALSE
C/C(=C1\CCOC(=O)S1)N(C=O)Cc1cnc(C)nc1N: TRUE
OC[C@H]1O[C@@H](O[C@@H]2[C@@H](CO)O[C@](O)(CO)[C@H]2O)[C@H](O)[C@@H](O)[C@H]1O: FALSE
C/C=C(\C)C(=O)OCCc1ccccc1: FALSE
CC(=O)C1C(=O)C=C(C)OC1=O (centres undefined): FALSE
Cc1cccc(Cl)c1: FALSE
CN(C)C(C)(C)CO: FALSE
CC(=O)CC(=O)OC(C)(C)C: FALSE
CC(C)NCC(O)c1ccc2ccccc2c1 (centres undefined): FALSE
C[Si]1(C)O[Si](C)(C)O[Si](C)(C)O[Si](C)(C)O[Si](C)(C)O1: FALSE
CC(=O)OCC(=O)Nc1cc(C#N)cc(NC(=O)COC(C)=O)c1Cl: FALSE
COP(=O)(O)OP(=O)(O)OC: FALSE
O=Cc1ccccc1Cl: FALSE
CCO: FALSE
O=C(O)CNC(=O)CNC(=O)CNC(=O)CSC(=O)c1ccccc1: FALSE

----------
# system: Estrogen receptor (Homo sapiens)
# assay: qHTS assay to identify small molecule agonists of the estrogen receptor alpha (ER-alpha) signaling pathway using the BG1 cell line (AID 743079); also: % is scaled to controls: 0 for no effect and ±100 for the full control effect; nearly all actives have a fitted effect of over 20% in size
# experimental conditions: BG1Luc4E2 cells, ERE-luciferase agonist, 22 h; series mostly up to 70.3 µM
Inconclusive results are not listed. The source made the active and inactive calls. The call rests on the fitted dose curve; in most records, active means well fitted activation curve with a large enough effect in the repeat runs; inconclusive means weak or mixed curves, or effect the other way; inactive means no such curve, though single readings can be large or run the other way.
value type: outcome

O=C(O)CNC(=O)CNC(=O)CNC(=O)CSC(=O)c1ccccc1: inactive
C[Si]1(C)O[Si](C)(C)O[Si](C)(C)O[Si](C)(C)O[Si](C)(C)O1: inactive
COc1ccc2c(c1)c1c3n2CCN(C)C3=NCC1: inactive
O=C(Cn1ccnc1[N+](=O)[O-])NCc1ccccc1: inactive
CCC(C)OC(C)CC (stereo not given): inactive
CCCC(=O)OC/C=C(\C)CCC=C(C)C: inactive
CCCCCCCCCCCCCCC(=O)NC(CO)CCCCCCCCCCCCCC (stereo not given): inactive
OCC1CCC(CO)CC1 (stereo not given): inactive
CC/C(C)=N\O[Si](C)(O/N=C(\C)CC)O/N=C(\C)CC: inactive
Fc1ccccc1: inactive

----------
# assay: qHTS assay for small molecule activators of the heat shock response signaling pathway - cell viability counter screen (AID 743209); also: % is scaled to controls: 0 for no effect and ±100 for the full control effect; nearly all actives have a fitted effect of over 50% in size
# experimental conditions: HSE-bla HeLa viability, CellTiter-Glo luminescence, 5 h; series mostly up to 62.6 µM
# From the text: U.S. Tox21 Program National Center for Advancing Translational Sciences [NCATS] NIH Chemical Genomics Center [NCGC] U.S. Environmental Protection Agency [EPA] National Institutes of Environmental Health Sciences [NIEHS] National Toxicology Program [NTP] U.S. Food and Drug Administration [FDA] Tox21 Assay Overview: Various chemicals, environmental and physiological stress conditions may lead to the activation of heat shock response/ unfolded protein response (HSR/UPR). […]
Records with an inconclusive call do not appear. The source made the active and inactive calls. Calls follow the shape of the dose curve; as a rule, active = well fitted cell-killing curve with a large enough effect in the repeat runs; inconclusive = weak or mixed curves, or effect the other way; inactive = no such curve, though single readings can be large or run the other way.
value type: activity change, negative = cytotoxicity

COc1ccc(CCO)cc1: inactive
CC(C)C1OCCN1CCOC(=O)NCCCCCCNC(=O)OCCN1CCOC1C(C)C (stereo not given): inactive
CC(O)CC(C)O (stereo not given): inactive
OCCN1CCOCC1: inactive
CC(N)CCCC(C)(C)O (stereo not given): inactive

----------
# assay: qHTS assay to identify small molecule HDAC inhibitors (AID 1259364);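 also: wild-type HCT-116 cells with endogenous class I/II HDAC activity; nearly all actives have a fitted effect of over 45% in size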
# experimental conditions: HCT-116 HDAC-Glo I/II luminescence, 2 h; series mostly up to 92.4 µM
Inconclusive results are not listed. The source made the active and inactive calls. The call rests on the fitted dose curve; in most records, active means well fitted inhibition curve with a large enough effect in the repeat runs; inconclusive means weak or mixed curves; inactive means flat fitted curve, though single readings scatter.
Classes used: active, inactive

CC(=O)OC(C)=O: inactive
Cc1cc(-c2ccccc2)nnc1NCCN1CCOCC1: inactive
NCC1(Cc2noc(=O)[nH]2)CCCCC1: inactive
CC(C)=CCC[C@@](C)(O)[C@H]1CC=C(C)CC1: inactive
COc1cc2c(cc1OC)CN(C(=O)[C@H](C)N[C@@H](CCc1ccccc1)C(=O)O)[C@H](C(=O)O)C2: inactive
CNCCS(=O)(=O)O: inactive
COc1c2occc2c(OC)c2c(=O)cc(C)oc12: inactive
COC(=O)c1cc(Cl)cc(Cl)c1: inactive
O=C(Cl)c1ccccc1[N+](=O)[O-]: inactive
C=C(C)C1CC=C(C)C(=O)C1 (stereo unspecified): inactive
C=CC(=O)OCC1CCCO1 (stereo unspecified): inactive
O=C(CCCl)NCCc1ccccc1: inactive
CC/C=C\CCOC(=O)c1ccccc1O: active
CCCCCCCCCCOC(C)=O: inactive
O=C[O][Al]([O]C=O)[O]C=O: inactive
C[Si]1(C)O[Si](C)(C)O[Si](C)(C)O[Si](C)(C)O[Si](C)(C)O1: inactive
Cn1nnc2c(C(N)=O)ncn2c1=O: inactive
O=C(NCN1CCOCC1)c1cnccn1: inactive
c1ccc2c(CC3=NCCN3)cccc2c1: inactive
OC1OCCOC1O (stereo unspecified): inactive
Cc1ccc(C(=O)O)cc1[N+](=O)[O-]: inactive
COc1cc(OC)nc(O[C@H](C(=O)O)C(OC)(c2ccccc2)c2ccccc2)n1: inactive
CCC(C)C(C)=O (stereo unspecified): inactive
COCCc1ccccn1: inactive
OC[C@@H](O)C(O)[C@@H](O)CO (stereo partly specified): inactive
CC(C)Cn1cnc2c1c(=O)n(C)c(=O)n2C: inactive
CCC(=O)Oc1ccc2c(c1)CC[C@@H]1[C@@H]2CC[C@@]2(C)[C@H]1C[C@@H](OC(=O)CC)[C@@H]2OC(=O)CC: inactive
CC(C)Nc1ccccc1: inactive
CC(N)CCCC(C)(C)O (stereo unspecified): inactive
CN(C)CCCO[C@@H]1[C@H]2OC(C)(C)O[C@H]2O[C@@H]1C(O)CO (stereo partly specified): inactive
CCCCCCCCCCCCCBr: inactive
COc1ccc2c(c1)c1c3n2CCN(C)C3=NCC1: inactive
[O-][n+]1cccc(/C(Cl)=N/OC[C@@H](O)CN2CCCCC2)c1: inactive
C=CCCCCCCCCC(=O)OCCCC: inactive
CCNC(=O)NCc1cccc(Cl)c1: inactive
CC(C)=CCC/C(C)=C/COC=O: inactive
CO[Si](CCCn1c(=O)n(CCC[Si](OC)(OC)OC)c(=O)n(CCC[Si](OC)(OC)OC)c1=O)(OC)OC: inactive
CC1=C(C(=O)O)N2C(=O)[C@@H](NC(=O)[C@H](N)c3ccccc3)[C@H]2SC1: inactive
CC1=C(O)C(=O)C(C)O1 (stereo unspecified): inactive
CC/C(C)=N\O[Si](C)(O/N=C(\C)CC)O/N=C(\C)CC: inactive
CCN(CC)CCN: inactive
